B1: CASP6 (parent)
chain: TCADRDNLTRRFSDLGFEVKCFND

variants of: B1; assay: protein stability index of a GFP-peptide fusion (GPS, HEK-293T) (PSI 1-6); higher = more stable; conditions: c terminus: a fixed tail appended;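 also: lentivirally expressed fusions sorted by FACS into six bins by GFP to DsRed ratio, PSI derived from sequencing read proportions per bin multiplied by bin number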
Catalogue of variants with associated protein stability index
Give only the figure.

ALTERATION	REPORTED_VALUE
G16N	3.61
S13C	2.67
C2Q	3.43
G16D	3.33
R11E	4.2
C21W	2.63

Indicate its recorded protein stability index; the variant in question is G16F
2.03

// fetch protein stability index given entry G16A
2.99

Return value of protein stability index for input D6M , no commentary.
3.09

Give protein stability index for A3S
3.64

Fill in protein stability index for record L15H
3.65
